tested.on: SpEgtUC (Streptococcus pneumoniae, UniProt A0A0H2ZQB9, F293Y)
Sequence (A0A0H2ZQB9 233-506 F293Y): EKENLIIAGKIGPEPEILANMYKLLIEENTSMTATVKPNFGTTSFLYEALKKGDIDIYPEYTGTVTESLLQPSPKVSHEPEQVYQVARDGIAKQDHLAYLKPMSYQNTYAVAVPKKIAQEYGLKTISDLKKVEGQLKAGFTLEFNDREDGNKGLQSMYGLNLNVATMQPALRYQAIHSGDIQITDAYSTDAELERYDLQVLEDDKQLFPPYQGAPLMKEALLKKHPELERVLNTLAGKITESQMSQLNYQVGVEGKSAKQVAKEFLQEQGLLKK
experimental.details: biochemical
attribute.measured: Kd (nM)
Give the quantity in nM, number only.

IN: Consider the compound C[N+](C)(C)[C@@H](Cc1c[nH]c(=S)[nH]1)C(=O)[O-] and give its recorded Kd.
OUT: 500

* * *

tested.on: SpEgtUCCTT (Streptococcus pneumoniae, UniProt A0A0H2ZQB9, G502V/L503C)
Sequence (A0A0H2ZQB9 233-503 G502V/L503C): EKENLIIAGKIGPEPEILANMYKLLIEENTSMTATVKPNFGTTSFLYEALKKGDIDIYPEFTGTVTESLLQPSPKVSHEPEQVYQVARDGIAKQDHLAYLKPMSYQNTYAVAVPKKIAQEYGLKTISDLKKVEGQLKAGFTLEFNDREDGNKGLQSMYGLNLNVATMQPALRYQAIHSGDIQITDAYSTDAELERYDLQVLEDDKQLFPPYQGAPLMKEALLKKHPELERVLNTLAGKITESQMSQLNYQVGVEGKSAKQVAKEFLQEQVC
experimental.details: biochemical
attribute.measured: Kd (nM)
Give a bare numeral; the unit nM is implied.

IN: For the compound C[N+](C)(C)[C@@H](Cc1c[nH]c(=S)[nH]1)C(=O)[O-] [ET, L-ergothioneine] , report Kd.
OUT: 52.6
